We begin with a simple list: items and their reported growth.
Test system: RXF 393 renal
Experiment: NCI-60 one-dose screen, 48 h (100 = growth as untreated, 0 = no growth, -100 = all killed)
Details: 10 µM
This is part of a sample that, as a whole, favours compounds with a hit. Of some 83,000 tested, about 20% had one in any assay.

Compound: CC1(c2ccccc2)NC(=O)NC1=O (configuration not stated)
growth (%): 110

Compound: O=S(=O)(O)c1ccc(O)c2ccccc12
growth (%): 108

Compound: NC(=O)c1ccc(N=C(N)N=C(N)N)cc1
growth (%): 89.6

Compound: COC(=O)c1cccnc1
growth (%): 105

Compound: CC(=O)/C(Cc1ccccc1)=N/O
growth (%): 109

Compound: O=C(c1ccccc1)C1CCC1
growth (%): 109

Compound: CC(=O)Nc1cccc(Cl)c1C
growth (%): 106
